Molecular target: αIIbβ3 integrin (Homo sapiens, UniProt P05106+P08514)
Sequence (P08514 32-887 limits assumed): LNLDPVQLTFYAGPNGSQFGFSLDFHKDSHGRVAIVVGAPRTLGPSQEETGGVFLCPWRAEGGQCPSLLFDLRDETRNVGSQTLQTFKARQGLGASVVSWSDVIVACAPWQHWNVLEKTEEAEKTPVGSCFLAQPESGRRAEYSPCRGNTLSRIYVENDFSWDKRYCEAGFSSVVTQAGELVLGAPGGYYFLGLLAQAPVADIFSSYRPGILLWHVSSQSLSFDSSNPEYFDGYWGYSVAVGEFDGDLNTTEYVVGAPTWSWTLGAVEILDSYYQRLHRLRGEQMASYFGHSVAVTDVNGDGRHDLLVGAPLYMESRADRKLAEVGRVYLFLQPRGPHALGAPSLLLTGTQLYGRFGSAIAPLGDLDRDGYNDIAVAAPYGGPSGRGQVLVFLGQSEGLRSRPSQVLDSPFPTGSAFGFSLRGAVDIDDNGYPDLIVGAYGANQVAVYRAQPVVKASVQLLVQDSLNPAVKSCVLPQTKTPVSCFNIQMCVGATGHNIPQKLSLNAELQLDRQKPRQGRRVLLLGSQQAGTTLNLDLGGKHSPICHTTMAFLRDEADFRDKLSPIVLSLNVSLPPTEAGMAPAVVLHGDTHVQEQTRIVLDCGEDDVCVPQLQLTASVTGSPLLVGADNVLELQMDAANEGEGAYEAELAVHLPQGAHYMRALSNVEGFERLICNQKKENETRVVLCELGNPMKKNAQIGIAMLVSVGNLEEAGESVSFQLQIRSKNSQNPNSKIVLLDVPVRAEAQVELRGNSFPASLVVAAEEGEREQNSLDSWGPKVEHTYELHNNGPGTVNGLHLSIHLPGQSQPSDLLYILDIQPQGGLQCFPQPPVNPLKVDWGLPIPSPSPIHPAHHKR
Sequence (P08514 891-1039 partner limits assumed): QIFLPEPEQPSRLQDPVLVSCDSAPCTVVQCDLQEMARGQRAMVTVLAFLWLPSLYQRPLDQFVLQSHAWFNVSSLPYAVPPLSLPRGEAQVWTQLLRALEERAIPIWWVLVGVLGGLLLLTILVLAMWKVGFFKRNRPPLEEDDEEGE
Sequence (P05106 27-788): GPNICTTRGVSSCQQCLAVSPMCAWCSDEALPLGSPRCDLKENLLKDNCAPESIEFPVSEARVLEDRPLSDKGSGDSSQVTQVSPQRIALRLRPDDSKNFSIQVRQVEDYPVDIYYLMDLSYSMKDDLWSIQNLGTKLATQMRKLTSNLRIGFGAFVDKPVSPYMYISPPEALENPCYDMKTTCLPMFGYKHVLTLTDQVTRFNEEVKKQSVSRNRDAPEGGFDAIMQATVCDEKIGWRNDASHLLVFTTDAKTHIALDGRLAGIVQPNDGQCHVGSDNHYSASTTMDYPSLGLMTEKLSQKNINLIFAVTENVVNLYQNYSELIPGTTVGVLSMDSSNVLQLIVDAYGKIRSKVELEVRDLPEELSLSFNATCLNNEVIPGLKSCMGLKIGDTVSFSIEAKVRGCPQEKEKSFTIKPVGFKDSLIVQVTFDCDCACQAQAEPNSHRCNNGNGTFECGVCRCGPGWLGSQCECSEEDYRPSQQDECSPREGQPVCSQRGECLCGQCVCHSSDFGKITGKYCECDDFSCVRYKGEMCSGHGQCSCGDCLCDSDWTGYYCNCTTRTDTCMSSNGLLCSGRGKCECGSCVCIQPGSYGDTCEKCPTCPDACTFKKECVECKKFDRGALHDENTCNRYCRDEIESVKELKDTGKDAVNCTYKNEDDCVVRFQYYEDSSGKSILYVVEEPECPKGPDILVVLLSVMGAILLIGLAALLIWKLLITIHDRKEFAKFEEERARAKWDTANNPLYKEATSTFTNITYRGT
Test: Competitive solid-phase integrin binding assay (ELISA), fibrinogen-αIIbβ3
Conditions: purified integrin, n = 5 ± SEM, read-out: In vitro IC50 αIIbβ3
Metric name: IC50

Example compounds with recorded IC50:
CC(C)[C@H]1NC(=O)[C@H](Cc2ccccc2)NC(=O)[C@H](CC(=O)O)NC(=S)CNC(=O)[C@H](CCCNC(=N)N)NC1=O [Compound 9d] : > 100 µM
CC(C)[C@@H]1NC(=S)[C@@H](Cc2ccccc2)NC(=O)[C@H](CC(=O)O)NC(=O)CNC(=O)[C@H](CCCNC(=N)N)NC1=O [Compound 7] : > 10 µM
CC(C)[C@@H]1NC(=S)[C@H](Cc2ccccc2)NC(=O)[C@H](CC(=O)O)NC(=O)CNC(=O)[C@H](CCCNC(=N)N)NC1=O [Compound 9b] : > 100 µM
CC(C)[C@@H]1NC(=O)[C@@H](Cc2ccccc2)NC(=S)[C@H](CC(=O)O)NC(=O)CNC(=O)[C@H](CCCNC(=N)N)NC1=O [Compound 11] : > 100 µM
CC(C)[C@@H]1NC(=O)[C@@H](Cc2ccccc2)NC(=O)[C@H](CC(=O)O)NC(=S)CNC(=O)[C@H](CCCNC(=N)N)NC1=O [Compound 10] : > 100 µM

INPUT: Output IC50 of CC(C)[C@@H]1NC(=O)[C@@H](Cc2ccccc2)NC(=O)[C@H](CC(=O)O)NC(=O)CNC(=S)[C@H](CCCNC(=N)N)NC1=O [Compound 9]
OUTPUT: > 10 µM

INPUT: Output IC50 of CC(C)[C@@H]1NC(=O)[C@H](Cc2ccccc2)NC(=S)[C@H](CC(=O)O)NC(=O)CNC(=O)[C@@H](CCCNC(=N)N)NC1=O [Compound 9c]
OUTPUT: > 100 µM

====

Test system: αvβ3, αvβ5 and α5β1 expressing U-87 MG glioblastoma cells
Assay: Competitive cell-adhesion inhibition assay to vitronectin, U-87 MG
Assay type: cell-based, human
Conditions: n = 5 ± SEM, read-out: In cellulo IC50 U-87 MG
# maps each entry to its IC50

CC(C)[C@@H]1NC(=O)[C@H](Cc2ccccc2)NC(=S)[C@H](CC(=O)O)NC(=O)CNC(=O)[C@@H](CCCNC(=N)N)NC1=O [Compound 9c] : > 100 µM
CC(C)[C@@H]1NC(=O)[C@@H](Cc2ccccc2)NC(=O)[C@H](CC(=O)O)NC(=S)CNC(=O)[C@H](CCCNC(=N)N)NC1=O [Compound 10] : > 100 µM
CC(C)[C@H]1NC(=O)[C@H](Cc2ccccc2)NC(=O)[C@H](CC(=O)O)NC(=S)CNC(=O)[C@H](CCCNC(=N)N)NC1=O [Compound 9d] : > 100 µM
CC(C)[C@@H]1NC(=O)[C@@H](Cc2ccccc2)NC(=O)[C@H](CC(=O)O)NC(=O)CNC(=S)[C@H](CCCNC(=N)N)NC1=O [Compound 9] : > 100 µM
CC(C)[C@@H]1NC(=O)[C@H](Cc2ccccc2)NC(=O)[C@@H](CC(=O)O)NC(=O)CNC(=O)[C@H](CCCNC(=N)N)NC1=S [Compound 9a] : 0.04 µM

Now, please, on to the next molecule.
INPUT: With αvβ3, αvβ5 and α5β1 expressing U-87 MG glioblastoma cells as the test system, provide measured IC50 for this molecule: CC(C)[C@@H]1NC(=S)[C@@H](Cc2ccccc2)NC(=O)[C@H](CC(=O)O)NC(=O)CNC(=O)[C@H](CCCNC(=N)N)NC1=O [Compound 7]
OUTPUT: 0.326 µM
